# Target Under Test: delta opioid receptor (Rattus norvegicus)
# Construct: from tissue; host or cells: forebrain of male Wistar rats
# Sequence (P33533 whole entry): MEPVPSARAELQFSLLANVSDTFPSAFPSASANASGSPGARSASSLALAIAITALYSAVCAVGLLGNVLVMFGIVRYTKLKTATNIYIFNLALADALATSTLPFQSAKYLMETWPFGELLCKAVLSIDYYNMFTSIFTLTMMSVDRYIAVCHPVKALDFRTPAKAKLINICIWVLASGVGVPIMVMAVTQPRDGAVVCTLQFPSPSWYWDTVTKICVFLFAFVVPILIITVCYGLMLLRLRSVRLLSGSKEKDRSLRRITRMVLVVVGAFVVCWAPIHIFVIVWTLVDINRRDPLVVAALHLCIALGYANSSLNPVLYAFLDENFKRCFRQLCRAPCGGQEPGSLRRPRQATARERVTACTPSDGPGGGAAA
# Protocol Text: Rat Brain Delta Opioid Receptor Binding Assay ([3H]DPDPE)
# Experimental Conditions: rat forebrain membranes, margin of error 10-20%, read-out: r Ki δ
Attribute Measured: pKi
Answers are plain numbers, as −log10 of the molar value.

Below: 5 compounds and their reported pKi.
COc1ccc(CN(C(=O)[C@@H](N)Cc2c(C)cc(C(N)=O)cc2C)[C@@H](C)c2nc(-c3ccccc3Br)c[nH]2)cc1C(=O)O; 9.16
Cc1cc(C(N)=O)cc(C)c1C[C@H](N)C(=O)N(Cc1ccc(C(=O)O)cc1)[C@@H](C)c1nc(-c2ccccc2)c[nH]1; 9.24
Cc1cc(O)cc(C)c1C[C@H](N)C(=O)N(C)Cc1nc(-c2ccccc2)c[nH]1; 7.58
C[C@H](NC(=O)[C@@H](N)Cc1ccc(O)cc1)c1nc(-c2ccccc2)c[nH]1; 5.25
COc1ccc(CN(C(=O)[C@@H](N)Cc2c(C)cc(C(N)=O)cc2C)[C@@H](C)c2nc(-c3ccccc3)c[nH]2)cc1C(=O)NC1CC1; 9.54

Batch of 2 compounds: report pKi for each.
1. Cc1cc(O)cc(C)c1C[C@H](N)C(=O)N(Cc1nc(-c2cc(C(F)(F)F)cc(C(F)(F)F)c2)c(C)[nH]1)C(C)C
2. COC(=O)c1cccc(CN(C(=O)[C@@H](N)Cc2c(C)cc(C(N)=O)cc2C)[C@@H](C)c2nc(-c3ccccc3)c[nH]2)c1

1: 6.92; 2: 9.96

Each recorded value in this set is attributed to patent US10213415B2.
